Entries annotated with measured pIC50
Tested on: P. aeruginosa pyocyanin production
ASSAY_SUMMARY: Pyocyanin assay
Format: cell-based
TEST_CONTEXT: Pseudomonas aeruginosa, PA14, 16 h, read-out: IC50-value towards pyocyanin production, PA14 in PPGAS medium, 16 h
pIC50: −log10 of the molar value.

Lookup: GET /values?readout=pIC50&item= Fc1ccc(F)c(Nc2cccc(-n3cc(CNc4cc(Cl)nc(C(F)(F)F)c4)nn3)c2)c1 [Compound 07]
Found: 6.70 to 7.00

====

Listing: solubility at 5 min of selected compounds
ASSAY_SUMMARY: Kinetic Turbidimetric Aqueous Solubility
Assay type: physicochemical
TEST_CONTEXT: aqueous buffer, kinetic from dmso stock, PBS buffer, room temperature

FC(F)(F)c1cc(SCc2nc3cc(Nc4cccnc4)ccc3[nH]2)ccn1 ... ≥ 100 µM
Nc1cc(SCc2nc3cc(Nc4cccc(F)c4)ccc3[nH]2)cc(C(F)(F)F)n1 ... > 10 µM
Fc1cc(Nc2ccccc2)cc2nc(CSc3ccnc(C(F)(F)F)c3)[nH]c12 ... > 25 µM
O=[N+]([O-])c1cc(-c2ncc(CNc3cc(Cl)nc(C(F)(F)F)c3)cn2)ccc1Cl ... > 10 µM

Lookup: Using the record for Fc1ccc(Nc2ccc3[nH]c(CSc4ccnc(C(F)(F)F)c4)nc3c2)c(F)c1 , report its solubility at 5 min.
Found: > 25 µM

Lookup: Entry under review: FC(F)(F)c1cc(SCc2nc3cc(Nc4cccc(Cl)c4)ccc3[nH]2)ccn1 . Reported solubility at 5 min?
Found: > 10 µM

Lookup: Recorded solubility at 5 min of Fc1cccc(Nc2ccc3[nH]c(CNc4ccnc(C(F)(F)F)c4)nc3c2)c1 , please.
Found: ≥ 100 µM

Lookup: Would you kindly share the measured solubility at 5 min for O=[N+]([O-])c1cccc(-c2ncc(CNc3cc(Cl)nc(C(F)(F)F)c3)cn2)c1 ?
Found: > 10 µM

====

Some compounds, each annotated with its measured half-life at 1 μM.
ASSAY_SUMMARY: Metabolic stability in mouse liver microsomes (MLM)
Type: in vitro ADME
TEST_CONTEXT: 1 μM compound, 0.5 mg/mL MLM, 1 mM NADPH, 37° C., read-out: half-life (t1/2) towards MLM

Previously resolved entries follow.
FC(F)c1cccc(Nc2ccc3[nH]c(CSc4ccnc(C(F)(F)F)c4)nc3c2)c1 [Compound 37] ... > 1 h
O=[N+]([O-])c1cccc(-c2ncc(CNc3cc(Cl)nc(C(F)(F)F)c3)cn2)c1 [Compound 09] ... 0.517 to 1 h
O=[N+]([O-])c1cc(-c2ncc(CNc3cc(Cl)nc(C(F)(F)F)c3)cn2)ccc1Cl [Compound 08] ... > 1 h
NC(=O)c1cccc(Nc2ccc3[nH]c(CSc4ccnc(C(F)(F)F)c4)nc3c2)c1 [Compound 36] ... 0.517 to 1 h

Turning to the following compound.
Lookup: Give its half-life at 1 μM value. Item: Fc1ccc(Nc2ccc3[nH]c(CSc4ccnc(C(F)(F)F)c4)nc3c2)c(F)c1 [Compound 45]
Found: > 1 h

====

EXPERIMENTAL_TARGET: PqsR (Pseudomonas aeruginosa)
Sequence (Q9I4X0 whole entry): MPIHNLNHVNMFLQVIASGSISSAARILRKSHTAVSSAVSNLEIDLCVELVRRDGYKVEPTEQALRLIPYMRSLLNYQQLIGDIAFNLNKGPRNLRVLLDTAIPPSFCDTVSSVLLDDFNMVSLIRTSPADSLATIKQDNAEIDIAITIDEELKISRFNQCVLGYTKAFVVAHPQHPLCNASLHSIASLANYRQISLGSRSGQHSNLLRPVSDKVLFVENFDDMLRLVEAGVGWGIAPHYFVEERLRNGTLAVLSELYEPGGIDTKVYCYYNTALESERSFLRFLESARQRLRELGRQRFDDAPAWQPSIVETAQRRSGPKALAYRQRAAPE
ASSAY_SUMMARY: PqsR inverse agonistic activity, reporter gene assay in E. coli
pIC50: −log10 of the molar value.
TEST_READOUT: pIC50

Lookup: May I ask what pIC50 has been recorded for Fc1cc(Nc2ccccc2)cc2nc(CSc3ccnc(C(F)(F)F)c3)[nH]c12 [Compound 56] ?
Found: ≥ 7.30

====

ASSAY_SUMMARY: Kinetic Turbidimetric Aqueous Solubility
Assay type: physicochemical
TEST_CONTEXT: aqueous buffer, kinetic from dmso stock, PBS buffer, room temperature
Protocol: Kinetic Turbidimetric Aqueous Solubility at room temperature for 5 min. Test compound was diluted in PBS buffer to give a range of concentrations (typically 0.4, 2, 4, 20, 40, 100, and 200 μM, final DMSO concentration 2%) and incubated at room temperature for 5 min. […] Data was analyzed by fitting a four parameter sigmoidal function to the measured and normalized absorbances and AUC calculation providing access to Log S (decadic logarithm of the solubility).
Catalogue of solubility at 5 min readings, one per entry.

Fc1cc(C(F)(F)F)ccc1Nc1ccc2[nH]c(CSc3ccnc(C(F)(F)F)c3)nc2c1 ... > 25 µM

Lookup: Quick one: solubility at 5 min for Fc1ccc(Nc2ccc3[nH]c(CSc4ccnc(C(F)(F)F)c4)nc3c2)cc1F ?
Found: > 10 µM

Lookup: Would you mind telling me what solubility at 5 min value was observed for FC(F)(F)c1cc(NCc2cn(-c3cccc(Nc4ccccc4)c3)nn2)ccn1 ?
Found: > 10 µM

Lookup: Using the record for Fc1cc(F)cc(Nc2ccc3[nH]c(CSc4ccnc(C(F)(F)F)c4)nc3c2)c1 , report its solubility at 5 min.
Found: > 25 µM

Lookup: Bench note: what solubility at 5 min did Fc1cccc(Nc2ccc3[nH]c(COc4ccnc(C(F)(F)F)c4)nc3c2)c1 show?
Found: > 25 µM

Lookup: Return reported solubility at 5 min; argument: Nc1cc(SCc2nc3cc(Nc4ccccc4)ccc3[nH]2)cc(C(F)(F)F)n1
Found: > 10 µM

Lookup: // query solubility at 5 min value for entry Fc1ccccc1Nc1ccc(-n2cc(CNc3ccnc(C(F)(F)F)c3)nn2)cc1
Found: > 50 µM

Lookup: I am curious: what solubility at 5 min value has been reported for COc1ccc(Nc2ccc3[nH]c(CSc4ccnc(C(F)(F)F)c4)nc3c2)cc1 ?
Found: > 25 µM

====

Tested on: P. aeruginosa pyocyanin production
ASSAY_SUMMARY: Pyocyanin assay
Assay type: cell-based
TEST_CONTEXT: Pseudomonas aeruginosa, PA14, 16 h, read-out: IC50-value towards pyocyanin production, PA14 in PPGAS medium, 16 h
pIC50: −log10 of the molar value.
Reported pIC50 by item:

Fc1cccc(Nc2ccc3[nH]c(CNc4ccnc(C(F)(F)F)c4)nc3c2)c1 [Compound 61] ... ≥ 7.00

Lookup: Name the reported pIC50 value associated with the molecule Cc1cccc(Nc2ccc3[nH]c(CSc4ccnc(C(F)(F)F)c4)nc3c2)c1 [Compound 30]
Found: 6.70 to 7.00

====

Each record here notes measured solubility at 5 min.
ASSAY_SUMMARY: Kinetic Turbidimetric Aqueous Solubility
Format: physicochemical
TEST_CONTEXT: aqueous buffer, kinetic from dmso stock, PBS buffer, room temperature

Consider the worked cases shown below.
COc1ccc(Nc2ccc3[nH]c(CSc4ccnc(C(F)(F)F)c4)nc3c2)cc1F ... > 25 µM
Cc1c(F)cc(Nc2ccc3[nH]c(CSc4ccnc(C(F)(F)F)c4)nc3c2)cc1F ... > 10 µM
Fc1cccc(F)c1Nc1ccc2[nH]c(CSc3ccnc(C(F)(F)F)c3)nc2c1 ... > 25 µM
Cc1cccc(Nc2ccc3[nH]c(CSc4ccnc(C(F)(F)F)c4)nc3c2)c1 ... > 10 µM
Fc1ccc(F)c(Nc2cccc(-n3cc(CNc4cc(Cl)nc(C(F)(F)F)c4)nn3)c2)c1 ... > 25 µM

Lookup: What solubility at 5 min value was documented for this compound, NC(=O)c1cccc(Nc2ccc3[nH]c(CSc4ccnc(C(F)(F)F)c4)nc3c2)c1 ?
Found: > 50 µM

Lookup: Which solubility at 5 min is listed for Fc1ccc(F)c(Nc2ccc3[nH]c(CSc4ccnc(C(F)(F)F)c4)nc3c2)c1 ?
Found: > 25 µM

Lookup: Given the compound Fc1cccc(Nc2ccc3[nH]c(CSc4ccnc(C(F)(F)F)c4)nc3c2)c1F , what is its reported solubility at 5 min?
Found: > 10 µM

====

EXPERIMENTAL_TARGET: PqsR (Pseudomonas aeruginosa)
ASSAY_SUMMARY: PqsR inverse agonistic activity, reporter gene assay in E. coli
pIC50: −log10 of the molar value.
# Lookup of reported pIC50 keyed by entry

# count of solved cases: 3
Fc1cccc(Nc2ccc3[nH]c(CNc4ccnc(C(F)(F)F)c4)nc3c2)c1 ... ≥ 7.30
Fc1ccc(Nc2cccc(-n3cc(CNc4ccnc(C(F)(F)F)c4)nn3)c2)cc1 ... ≥ 7.30
FC(F)(F)c1cc(SCc2nc3ccc(Nc4ccccc4)cc3s2)ccn1 ... 6.60 to 7.29

Lookup: For the compound Fc1cccc(F)c1Nc1ccc2[nH]c(CSc3ccnc(C(F)(F)F)c3)nc2c1 , what pIC50 is on record?
Found: ≥ 7.30

====

Form field: solubility at 5 min (one value per entry).
ASSAY_SUMMARY: Kinetic Turbidimetric Aqueous Solubility
Type: physicochemical
TEST_CONTEXT: aqueous buffer, kinetic from dmso stock, PBS buffer, room temperature

The cases that follow already have their solubility at 5 min on record.
NC(=O)c1ccccc1Nc1ccc2[nH]c(CSc3ccnc(C(F)(F)F)c3)nc2c1 [Compound 35] ... > 50 µM
FC(F)c1cccc(Nc2ccc3[nH]c(CSc4ccnc(C(F)(F)F)c4)nc3c2)c1 [Compound 37] ... > 10 µM
Cc1ccc(Nc2ccc3[nH]c(CSc4ccnc(C(F)(F)F)c4)nc3c2)cc1 [Compound 31] ... > 10 µM

Lookup: Fill in: solubility at 5 min of Fc1ccc(Nc2ccc3[nH]c(CSc4ccnc(C(F)(F)F)c4)nc3c2)cc1 [Compound 26] is ___
Found: > 25 µM

Lookup: Can you look up the measured solubility at 5 min of Fc1cccc(Nc2cccc(-n3cc(CNc4ccnc(C(F)(F)F)c4)nn3)c2)c1 [Compound 03] for me?
Found: > 10 µM

Lookup: Value lookup for solubility at 5 min; key = Nc1cccc(-c2ncc(CNc3cc(Cl)nc(C(F)(F)F)c3)cn2)c1 [Compound 10]
Found: ≥ 100 µM

Lookup: Give the measured solubility at 5 min of FC(F)(F)c1cc(SCc2nc3cc(Cc4ccccc4)ccc3[nH]2)ccn1 [Compound 12] .
Found: > 25 µM

Lookup: Given COc1cc(F)cc(Nc2ccc3[nH]c(CSc4ccnc(C(F)(F)F)c4)nc3c2)c1 [Compound 54] , state its recorded solubility at 5 min.
Found: > 25 µM

Lookup: Which solubility at 5 min value belongs to Fc1cc(Nc2cccnc2)cc2nc(CSc3ccnc(C(F)(F)F)c3)[nH]c12 [Compound 58] ?
Found: > 50 µM

Lookup: Query: solubility at 5 min; subject: Fc1ccccc1Nc1ccc2[nH]c(CSc3ccnc(C(F)(F)F)c3)nc2c1 [Compound 22]
Found: > 25 µM

Lookup: Request the reported solubility at 5 min associated with Cc1ccc(Nc2ccc3[nH]c(CSc4ccnc(C(F)(F)F)c4)nc3c2)nc1 [Compound 40]
Found: > 25 µM

Lookup: Param item = Nc1cc(SCc2nc3cc(Nc4ccccc4)ccc3[nH]2)nc(C(F)(F)F)n1 [Compound 14] ; retrieve measured solubility at 5 min.
Found: > 25 µM

Lookup: I'd like to know its solubility at 5 min. The compound in question is Fc1cccc(Nc2cc(F)c3[nH]c(CSc4ccnc(C(F)(F)F)c4)nc3c2)c1 [Compound 57]
Found: > 10 µM

Lookup: Any idea what solubility at 5 min was measured for Nc1cc(SCc2nc3cc(Nc4cccnc4)ccc3[nH]2)cc(C(F)(F)F)n1 [Compound 20] ?
Found: > 25 µM

Lookup: Query: solubility at 5 min; subject: COc1cccc(Nc2ccc3[nH]c(CSc4ccnc(C(F)(F)F)c4)nc3c2)c1 [Compound 33]
Found: > 10 µM

Lookup: # solubility at 5 min lookup, item Nc1cc(-c2ncc(CNc3cc(Cl)nc(C(F)(F)F)c3)cn2)ccc1Cl [Compound 11]
Found: > 25 µM

Lookup: # input compound: Fc1ccc(Nc2cccc(-n3cc(CNc4ccnc(C(F)(F)F)c4)nn3)c2)cc1 [Compound 05] ; wanted: its solubility at 5 min
Found: > 25 µM

Lookup: Look up solubility at 5 min for this compound: Fc1ccccc1Nc1ccc2[nH]c(COc3ccnc(C(F)(F)F)c3)nc2c1 [Compound 63]
Found: > 10 µM

Lookup: Requested read-out: solubility at 5 min. Entry: Cc1cc(Nc2ccccc2)cc2nc(CSc3ccnc(C(F)(F)F)c3)[nH]c12 [Compound 59]
Found: > 10 µM

Lookup: Item FC(F)(F)c1cc(NCc2nc3cc(Nc4ccccc4)ccc3[nH]2)ccn1 [Compound 60] has what recorded solubility at 5 min?
Found: ≥ 100 µM
